# assaySystem: Vitamin D3 receptor (Homo sapiens)
# protocolSummary: qHTS assay to identify small molecule antagonists of the vitamin D receptor (VDR) signaling pathway (AID 743223); note: % is set by controls: 0 for no effect and ±100 for the full control effect
# testConditions: VDR-UAS-bla HEK293T, beta-lactamase FRET ratio, 16 h; series mostly up to 61 µM
Records with an inconclusive call do not appear. The source made the active and inactive calls. Calls come from the whole dose curve; as a rule, active = well fitted inhibition curve with a large enough effect in the signal ratio in the repeat runs (not every such curve was filed as active); inconclusive = weak or mixed curves, or effect the other way; inactive = no such curve, though single readings can be large or run the other way; the % refers to the signal ratio.

- compound: "COc1ccc2cc(C=O)ccc2c1"
  activity change, negative = inhibition: "inactive"
- compound: "CCCC(C)C(=O)O (stereo not drawn)"
  activity change, negative = inhibition: "inactive"
- compound: "CC(C)(O)c1ccccc1"
  activity change, negative = inhibition: "inactive"

====

# assaySystem: Thyrotropin-releasing hormone receptor (Homo sapiens) (UniProt P34981)
# Sequence (P34981 whole entry, looked up): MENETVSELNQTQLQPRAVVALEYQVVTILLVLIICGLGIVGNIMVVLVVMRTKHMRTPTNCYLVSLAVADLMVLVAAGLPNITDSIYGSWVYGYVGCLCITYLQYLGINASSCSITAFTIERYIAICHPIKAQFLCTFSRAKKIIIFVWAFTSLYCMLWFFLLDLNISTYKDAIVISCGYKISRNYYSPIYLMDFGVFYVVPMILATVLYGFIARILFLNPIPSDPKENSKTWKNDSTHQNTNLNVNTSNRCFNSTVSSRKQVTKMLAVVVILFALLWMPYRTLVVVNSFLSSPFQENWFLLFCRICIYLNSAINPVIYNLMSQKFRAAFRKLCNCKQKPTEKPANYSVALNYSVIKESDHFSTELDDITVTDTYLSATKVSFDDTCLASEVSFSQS
# protocolSummary: qHTS assay to identify small molecule antagonists of the thyrotropin-releasing hormone receptor (TRHR) signaling pathway (AID 1346877); note: % is set by controls: 0 for no effect and ±100 for the full control effect
# testConditions: TRHR-HEK293, TRH-induced calcium fluorescence, antagonist mode; series mostly up to 51.3 µM
Calls of active or inactive are those of the source. Calls come from the whole dose curve; as a rule, active = well fitted inhibition curve with a large enough effect in the repeat runs (not every such curve was filed as active); inconclusive = weak or mixed curves; inactive = flat fitted curve, though single readings scatter.
endpoint: activity, negative = inhibition

- compound: "NC(=O)CCCCC1CCSS1 (configuration not stated)"
  reportedResult: "inactive"
- compound: "CC(=O)OC(C)(C)C"
  reportedResult: "inactive"
- compound: "NCC[C@H](O)C(=O)N[C@@H]1C[C@H](N)[C@@H](O[C@H]2O[C@H](CN)[C@@H](O)[C@H](O)[C@H]2O)[C@H](O)[C@H]1O[C@H]1O[C@H](CO)[C@@H](O)[C@H](N)[C@H]1O"
  reportedResult: "2.62% [at 0.194 µM] (inactive)"
- compound: "CC(C)CCOC(=O)CC(C)C"
  reportedResult: "inactive"
- compound: "COC(=O)C1=C(C)NC(C)=C(C(=O)OCC(C)=O)C1c1ccccc1[N+](=O)[O-] (configuration not stated)"
  reportedResult: "inactive"
- compound: "CC(C)(O)C(=O)c1ccc(OCCO)cc1"
  reportedResult: "inactive"
- compound: "COCc1ccc(COC)cc1"
  reportedResult: "inactive"
- compound: "CC(C)(C)OC(=O)N1C[C@@H](F)C[C@H]1C(=O)O"
  reportedResult: "inactive"
- compound: "COC[C@H](c1ccc(C(F)(F)F)cc1)N1CCN(C2(C)CCN(C(=O)c3c(C)ncnc3C)CC2)C[C@H]1C"
  reportedResult: "inactive"
- compound: "CCN(CC)S(=O)(=O)c1ccc(C(=O)O)cc1"
  reportedResult: "inactive"
- compound: "C=CCOCC(O)CS(=O)(=O)O (configuration not stated)"
  reportedResult: "inactive"
- compound: "C=CC(=O)OCCCCCC"
  reportedResult: "inactive"

====

# protocolSummary: qHTS assay to test for compound auto fluorescence at 460 nm (blue) in HepG2 cell free culture (AID 720685); note: % is set by controls: 0 for no effect and ±100 for the full control effect
# testConditions: Cell-free culture medium, blue autofluorescence 405/460 nm; series mostly up to 91.3 µM
The source made the active and inactive calls. Calls come from the whole dose curve; as a rule, active = well fitted curve in the direction sought with a large enough effect in the repeat runs; inconclusive = weak or mixed curves; inactive = flat fitted curve, though single readings scatter.

- structureSmiles: "CC(=O)O[C@H](CC(=O)[O-])C[N+](C)(C)C"
  fluorescence, % of fluorescent control: "inactive"
- structureSmiles: "COc1cccc(OC)c1"
  fluorescence, % of fluorescent control: "inactive"
- structureSmiles: "COc1ccc(NC(C)=O)cc1"
  fluorescence, % of fluorescent control: "inactive"
- structureSmiles: "NC(N)=NS(=O)(=O)c1ccc(N)cc1"
  fluorescence, % of fluorescent control: "-0.0031% [at 18.6 µM] (inactive)"
- structureSmiles: "Oc1ccc2c(c1)OC[C@@H](N1CCC(O)(c3ccc(F)cc3)CC1)[C@H]2O"
  fluorescence, % of fluorescent control: "inactive"
- structureSmiles: "Cc1ccc(N)cc1[N+](=O)[O-]"
  fluorescence, % of fluorescent control: "inactive"
- structureSmiles: "CC(C)CCCCCCN"
  fluorescence, % of fluorescent control: "inactive"
